The measurements presented in this section are drawn from the nanobody polyreactivity screen of Harvey et al. (2022).

Test: yeast display, Sf9 membrane polyspecificity reagent, FACS + sequencing; frameworks hold sequencing errors
READOUT NAME: polyreactivity (PSR sort gate)

Here is how some sequences turned out for polyreactivity (PSR sort gate).
sequence_code=QVQLVESGGGLVQAGGSLRLSCAASGRTFGDYAMGWYRQAPGKERELVAAISSSGGRTYYADSVKGRFTISRDNAKNTVYLQMNSLKPEDTAVYYCAAQSKYYQYYSWGQGTQVTVSS recorded_measurement="high polyreactivity"
sequence_code=QVQLVESGGGLVQAGGSLRLSCAASGFTLGDNAMGWSRQAPGKERELVAAISGGGSSTYYADSVKGRFTISRDNAKNTVYLQMNSLKPEDTAVYYCAADYYFSTYYSRYYFWGQGTQVTVSS recorded_measurement="low polyreactivity"
sequence_code=QVQLVESGGGLVQAGGSLRLSCAASGRIFFWYAMGWYRQAPGKERELVAGITSGGSTNYADSVKGRFTISRDNAKNTVYLQMNSLKPEDTAVYYCNTVDSIPIGSGLYYYWGQGTQVTVSS recorded_measurement="low polyreactivity"
sequence_code=QVQLVESGGGLVQAGGSLRLSCAASGSTFPRNAMGWYRQAPGKERELVAAISRSGGSTYYADSVKGRFTISRDNAKNTVYLQINSLKPEDTAVYYCAASYYGLPRYRYEYWGQGTQVTVSS recorded_measurement="high polyreactivity"
sequence_code=QDQLVESGGGLVQAGGSLRLSCAASGRLFATYAMGWNRQAPGKERELVAAISDSGGRTYYADSVTGRFTSSRDNAKNTVYLQMNSLKPEDTAVYYCAAKNGDRYARGYWGQGTQVTVSS recorded_measurement="high polyreactivity"
sequence_code=QVQLVESGGGLVQAGGSLRLICAASGRTFVKNAMGWSRQAPGKERELVAAIDRGSRTNYADSVKGRFTISRDNAKNTVYLQMNSLKPEDTAVYYCATRYRVRDDQTGTWSIFGYWGQGTQVTVSS recorded_measurement="high polyreactivity"
sequence_code=QVQLVESGGGLVQAGGSLRLSCAASGRTFTHYAMGWYRQAPGKERELVAAISRSGGTTYYADSVKGRFTISRDNAKSTVYLQMNSLKPEDTAVYYCNAEVVDFELGVFEDYYWAYDYWGQGTQVTVSS recorded_measurement="high polyreactivity"
sequence_code=QVQLVESVGGLVQAGGSLRLSCAASGRTFVYNAMGWYRQAPGKEREFVGAISDGGGDTYYADSVKGRFTISRDNAKNTVFLQMNSLKPEVTAVYYCNVEWQQPGYAFDYCGQGTQVTVSS recorded_measurement="low polyreactivity"
sequence_code=QFQLVETVGGLVQAGGSLRLSCAASGFTYKSYAMGWYCQAPVKERELVASISRRGGSTYYADSVKGRFTISRDNAKNNVYLQMNSLKPEDTAVYYCNKYFRYRGDYDYWGQGTQVTVSS recorded_measurement="high polyreactivity"
sequence_code=QVQLVESGGGLVQAGGSLRLSCAASGSIFGLYAMGWYRQAPGKETELVAAINWNGGDTYYADSVKGRFTISRDNAKNPVYLQMNSLKPEDTAVYYCAAEQYRYGIRRRHYDYWGQGTQVTVSS recorded_measurement="low polyreactivity"

Value of polyreactivity (PSR sort gate) reported for the sequence QVQLVESGGGLVQAGGSLRLSCAASGIIFRYNTMGWYRQAPGKERELVAAISKRGGSTYYADSVKGRFTISRDNAKNTVYLQMNSLKPEDTAVYYCAARYYSASYYNYGYWGQGTQVTVSS is high polyreactivity

Value of polyreactivity (PSR sort gate) reported for the sequence QVQLVESGGGLVQAGGSLRLSCAASGSIIGYYTMGWYRQAPGKEREFVAAISWSGGSTYYADSVKGRFTISRDNAKNTVYLQMNSLKPEDTAVYYCNADVYWEYDYCGQGTQVTVSS is low polyreactivity

Value of polyreactivity (PSR sort gate) reported for the sequence QVQLVESGGGLVQAGGSLRISCAASGFTFRSYSMGWYRQAPGKERELVAAITSTGGRTYYADSVKGRFTISRDNAKNTVYLQMNILNPEDTAVYYWAAGRKHFGPVHFGYWGQGTQVTVSW is high polyreactivity

Value of polyreactivity (PSR sort gate) reported for the sequence QVQLLESGGGLVQAGGSLRLSCAASGSPFYYYARGWYRQAPGKERELVARITYGGSRTYYADSVKGRFTISRDNAKYTVYLQMNSLKPEDTAVYYCNAGRVLYGYYLYDYWGQGTQLTVSS is high polyreactivity

Value of polyreactivity (PSR sort gate) reported for the sequence QVQLVESGGGLVQAGGSLRLSCAASGFIFPGNAMGWYRPAPGKERELVAAISNSGSRTYYADSVKGRLTISRDNAKNTVYLQMNSLIPEDTAVYYCNADVHIRGWPYDYWGQGTQVTVSS is low polyreactivity

Value of polyreactivity (PSR sort gate) reported for the sequence QVQLVESGGGLVQAGGSLRLSCAASGFIFQGNAMGWYRQAPGKEREFVAAISWSGGRTYYADSVKGRFTISRDNAKNTVYLQMNSLKPEDTAVYYCAVTPVRFASGGAWMDYWGQGTQVTVSS is high polyreactivity

Value of polyreactivity (PSR sort gate) reported for the sequence QVQLVESGGGLVQAGGSLRLSCAASGSIFGYNAMGWYRQAPGKEREFVAAITSGGSTYYADSVKGRFTISRDNAKNTVYLQMNSLKPEDTAVYYCRRRNVYSTRRYDYWGQGTQVTVSS is high polyreactivity

Value of polyreactivity (PSR sort gate) reported for the sequence QVQLVESGGGLVQAGGSLRLSCAASGRIFYRYAMGWYRPAPGKERELVAAIRYSGGRTYYADSVKGRFTISRDNAKNTVYLQMISLKPEDTAVYYCAADGQWYYAPFRGGDYENDYWGQGTQVTVSS is low polyreactivity
